- measurement_description: in vitro
- test_parameters: human
Counter-ions that a name gives are not always drawn.
experimental_readout: cytotoxicity at 41 h, 10 µM (%)
The reply should contain only the number, in %.

**Query** What cytotoxicity at 41 h, 10 µM value was documented for this compound, CCC(C)C(=O)O[C@@H]1C[C@@]2(C)[C@H](c3ccoc3)OC(=O)CC23OC2(C)O[C@]14[C@]1(C)[C@@H](CC(=O)OC)C5(C)CC1(O)[C@](O)(C5OC(=O)C1(C)OC1C)[C@@H](OC(C)=O)[C@]34O2 (stereo partly drawn) ?
**Result** 4.2

**Query** Ok, now CC1(C)[C@@H](O)CC[C@]2(C)[C@H]3C(=O)C=C4[C@@H]5C[C@@](C)(C(=O)O)CC[C@]5(C)CC[C@@]4(C)[C@]3(C)CC[C@@H]12
**Result** -5.3

**Query** Ok, now C[C@@]12C[C@@]3(O)O[C@@H](O1)[C@]1(COC(=O)c4ccccc4)[C@H]3C[C@@]12O[C@@H]1O[C@H](CO)[C@@H](O)[C@H](O)[C@H]1O
**Result** -7.6

**Query** Ok, now CCCCCCCCCCCCCCCCCCCCCCO
**Result** -30.5

**Query** Ok, now COc1cc(O)c2c(=O)c(O)c(-c3ccccc3)oc2c1
**Result** 11.5

**Query** Ok, now C[C@H]1[C@H](C)CC[C@]2(C(=O)O)CC[C@]3(C)C(=CC[C@@H]4[C@@]5(C)C[C@@H](O)[C@H](O)[C@@](C)(CO)[C@@H]5CC[C@]43C)[C@H]12
**Result** -22.7

**Query** Ok, now CC1(C)O[C@H]2CC(=O)OC[C@]23[C@H]2CC[C@@]4(C)[C@H](c5ccoc5)OC(=O)[C@H]5O[C@]54[C@]2(C)C(=O)C[C@@H]13
**Result** -8.4

**Query** Ok, now Cc1cc(=O)oc2c(O)c(O)ccc12
**Result** -16.6

**Query** Ok, now O=c1ccn([C@@H]2O[C@H](CO)[C@@H](O)[C@H]2O)c(=O)[nH]1
**Result** 1.4

**Query** Ok, now COc1ccc(-c2coc3cc(O)ccc3c2=O)c(O)c1O
**Result** -1.6

**Query** Ok, now NCCCCNCCCN [SPERMIDINE TRIHYDROCHLORIDE]
**Result** -54.4

**Query** Ok, now NC(=O)c1cccnc1 [NIACINAMIDE]
**Result** -3.6

**Query** Ok, now COC(=O)C[C@H]1C(C)(C)[C@@H](O)[C@@H]2CC3=C4CC(O)O[C@@H](c5ccoc5)[C@]4(C)CCC3[C@@]1(C)C2=O (stereo partly drawn) [3,16-DIDEOXYMEXICANOLIDE-3beta-DIOL]
**Result** -13.4

**Query** Ok, now COc1cc2c(cc1OC)C(=O)OC2
**Result** 20.2

**Query** Ok, now COc1ccc(Cc2nccc3cc(OC)c(OC)cc23)cc1OC [PAPAVERINE HYDROCHLORIDE]
**Result** 32.7

====

- Test system: HCT-8 host cells (Hs18S)
- test_parameters: human, 41 h, 10 μM
Binary call on Hs18S ΔCT with cut-off 0.3: strictly below means 1, and equality or higher means -1.

**Query** Lab note: Hs18S ΔCT threshold 0.3. Does this compound come in strictly under it? C[C@H](CCC(=O)O)[C@H]1CC[C@H]2[C@@H]3[C@H](O)C[C@@H]4C[C@H](O)CC[C@]4(C)[C@H]3CC[C@]12C
**Result** 1

**Query** Ok, now C=CCN=C=S [ALLYLISOTHIOCYANATE]
**Result** 1

**Query** Ok, now Oc1ccc([C@H]2Oc3cc(O)cc(O)c3C[C@H]2O)cc1 [EPIAFZELECHIN (2R,3R)(-)]
**Result** 1

**Query** Ok, now COc1cc([C@@H]2c3cc4c(cc3[C@@H](O[C@@H]3O[C@@H]5CO[C@@H](C)O[C@H]5[C@H](O)[C@H]3O)[C@H]3COC(=O)[C@H]23)OCO4)cc(OC)c1O [ETOPOSIDE]
**Result** -1

**Query** Ok, now COc1cc(OC)c2c(=O)c(-c3ccc4c(c3)OCO4)coc2c1
**Result** -1

**Query** Ok, now C[C@@H]1O[C@@H](O[C@H]2[C@H](Oc3cc(O)c4c(=O)cc(-c5ccc(O)cc5)oc4c3)O[C@H](CO)[C@@H](O)[C@@H]2O)[C@H](O)[C@H](O)[C@H]1O
**Result** 1

**Query** Ok, now COC(=O)C[C@H]1C(C)(C)C(=O)[C@@H]2CC3=C4CC(=O)O[C@@H](c5ccoc5)[C@]4(C)CC[C@@H]3[C@@]1(C)C2=O [MEXICANOLIDE]
**Result** 1

**Query** Ok, now C[C@]12CC[C@@H](O)C[C@H]1CCc1ccccc12
**Result** 1

**Query** Ok, now COC(=O)c1c(C)c2c(c(C)c1O)OC(=O)c1c(C)c(Cl)c(O)c(Cl)c1O2
**Result** -1

**Query** Ok, now O=c1c(-c2cc(O)c(O)c(O)c2)coc2cc(O)c(O)c(O)c12
**Result** 1

**Query** Ok, now CCOc1ccc(C(=O)c2ccc(OC)c(O)c2O)cc1
**Result** 1

**Query** Ok, now O=C(/C=C/c1ccc(O)c(O)c1)O[C@@H]1C[C@](O)(C(=O)O)C[C@@H](O)[C@H]1O
**Result** 1

**Query** Ok, now COc1cc(OC)c2ccc(=O)oc2c1
**Result** -1

**Query** Ok, now OC[C@@H](O)[C@@H](O[C@@H]1O[C@H](CO)[C@@H](O)[C@H](O)[C@H]1O)[C@H](O)[C@@H](O)CO [GLUCITOL-4-GUCOPYANOSIDE]
**Result** 1

**Query** Ok, now CC[C@H](C)C(=O)O[C@H]1CCC=C2C=C[C@H](C)[C@H](CC[C@@H]3C[C@@H](O)CC(=O)O3)[C@H]21
**Result** 1

**Query** Ok, now OC[C@@H](O)[C@@H](O)[C@H](O)[C@@H](O)CO
**Result** 1
